Tested on: Rattus norvegicus
Test: Antihyperglycemic activity in fasted hyperglycemic Wistar rat assessed as serum glucose level at 10 mg/kg, po measured 60 mins post dose by oral glucose tolerance test (reference value: 182.55 +/- 6.95 mg/dL)
Format: functional
outcome_measure: Activity (mg/dL)
Numbers only, in mg/dL.

For each listed entry, give its Activity.
1. O=S(=O)(NCCc1ccc(S(=O)(=O)NC(=S)Nc2ccccc2)cc1)c1ccc(F)cc1
2. Cc1ccc(S(=O)(=O)NCCc2ccc(S(=O)(=O)NC(=S)Nc3ccccc3)cc2)cc1
3. O=S(=O)(NC(=S)Nc1ccccc1)c1ccc(CCNS(=O)(=O)c2cccs2)cc1

1. 165.3
2. 173.51
3. 140.96

For each listed entry, give its Activity.
1. COc1ccc(S(=O)(=O)NCCc2ccc(S(=O)(=O)NC(=O)Nc3cccc4ccccc34)cc2)cc1
2. O=S(=O)(NCCc1ccc(S(=O)(=O)NC(=S)Nc2ccccc2)cc1)c1ccccc1
3. COc1ccc(Cl)cc1C(=O)NCCc1ccc(S(=O)(=O)NC(=O)NC2CCCCC2)cc1 [GLYBURIDE]

[157.9, 158.27, 128.34]

Specify the recorded Activity for CC1(C)C2CCC1(CS(=O)(=O)NCCc1ccc(S(=O)(=O)NC(=S)Nc3ccccc3)cc1)C(=O)C2 (configuration not stated) , system: Rattus norvegicus.
149.03
